Biological target: human LMPTP-A (Homo sapiens, UniProt P24666)
Sequence (P24666 1-158): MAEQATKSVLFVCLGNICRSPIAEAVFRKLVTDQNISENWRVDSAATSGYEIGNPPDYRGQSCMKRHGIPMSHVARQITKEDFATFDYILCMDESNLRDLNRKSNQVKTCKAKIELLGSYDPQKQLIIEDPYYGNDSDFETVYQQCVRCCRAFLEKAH
pIC50: −log10 of the molar value.
ASSAY ENDPOINT: pIC50

Examples with answers:
Req: Give reported pIC50 value for `CN1CCC(NC(=O)c2cc3cc(-c4cc(Nc5ccc(CN6CCCC6)cc5)c5cnccc5n4)ccc3n2C)CC1`
Resp: ≥ 6.00

Req: Give reported pIC50 value for `CCN(CC)C(=O)c1ccc(-c2cc(Nc3ccc(NCCOC)cc3)c3cnccc3n2)cc1`
Resp: 4.70 to 6.00

Fill in pIC50 for each of the 5 compounds listed.
1. CN1CCC(CNC(=O)/C=C/c2ccc(-c3cc(NCCCN4CCCCC4)c4cnccc4n3)cc2)CC1
2. O=C(NCCCN1CCCCC1)c1ccc(-c2cc(NC3CCNCC3)c3cnccc3n2)cc1
3. CCNc1cc(-c2ccc3c(c2)cc(C(=O)NC2CCN(C)CC2)n3C)nc2ccncc12
4. O=C(NC1CCNCC1)c1ccc(-c2cc(NCCCN3CCCCC3)c3cnccc3n2)c(C(F)(F)F)c1
5. O=C(c1nc2ccc(-c3cc(NCCCN4CCCCC4)c4cnccc4n3)cc2s1)N1CCNCC1

Resp:
≥ 6.00
4.70 to 6.00
≥ 6.00
4.70 to 6.00
4.70 to 6.00

Fill in pIC50 for each of the 8 compounds listed.
1. CCN(CC)C(=O)CNC(=O)CCc1ccc(-c2cc(NCCCN3CCCCC3)c3cnccc3n2)cc1
2. CN1CCC(NC(=O)c2ccc(-c3cc(NC4CCNCC4)c4cnccc4n3)cc2)CC1
3. O=C(NC1CCNCC1)c1cc2ccc(-c3cc(NCCCN4CCCCC4)c4cnccc4n3)cc2s1
4. CCN1CCN(C(=O)c2nc3cc(-c4cc(Nc5ccc(CN6CCCC6)cc5)c5cnccc5n4)ccc3[nH]2)CC1
5. CCN1CCC(CNC(=O)COCc2ccc(-c3cc(NCCCN4CCCCC4)c4cnccc4n3)cc2)CC1
6. CN1CCC(NC(=O)c2ccc(-c3cc(NC4CCN(C)CC4)c4cnccc4n3)cc2)CC1
7. CCN1CCC(NC(=O)c2cc3ccc(-c4cc(NCCCN5CCCCC5)c5cnccc5n4)cc3s2)CC1
8. Cn1c(C(=O)NC2CCS(=O)(=O)CC2)cc2cc(-c3cc(NCCCN4CCCCC4)c4cnccc4n3)ccc21

Resp:
["≥ 6.00", "4.70 to 6.00", "≥ 6.00", "≤ 4.70", "4.70 to 6.00", "4.70 to 6.00", "≥ 6.00", "≥ 6.00"]
